# Tested target: CBP Bromodomain (Homo sapiens)
# Sequence (Q92793 1085-1192 limits assumed): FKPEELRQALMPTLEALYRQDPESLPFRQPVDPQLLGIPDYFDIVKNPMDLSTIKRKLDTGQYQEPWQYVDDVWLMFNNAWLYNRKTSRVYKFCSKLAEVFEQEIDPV
# Assay method text: Assay 3: CBP bromodomain binding assay (TR-FRET)
# Method: Assay 3 CBP Bromodomain Binding Assay (TR-FRET) Compounds solutions of 10 mM in DMSO were pre-diluted in DSMO to 25× stock solutions in DMSO. These were then diluted down to 4× in assay buffer. A dilution series in assay buffer was performed keeping the DMSO concentration stable. […] The TR-FRET ratio was calculated by deviding 670 nm emission by 620 nm emission. […]
pEC50: −log10 of the molar value.
Can you tell me pEC50 for the items I'm about to list?

Fill in: pEC50 of CC(=O)Nc1cc(F)cc(Nc2cc(-c3cncc4c3ccn4C)nc([C@@H]3CC[C@H](C)N(C(C)=O)C3)n2)c1 is ___
> 6.70

Suppose we examine the compound C[C@H]1CC[C@@H](c2nc(Nc3cccc(F)c3)cc(-c3cccnc3)n2)CN1C(N)=O ; what pEC50 value has been reported?
5.00 to 6.00

Give its pEC50 value. Item: CC(=O)N1C[C@H](c2nc(Nc3cccc4[nH]ncc34)cc(-c3cccnc3)n2)CC[C@@H]1C
6.00 to 6.70

For the compound shown here, CC(=O)N1C[C@H](c2nc(Nc3cc(F)cc(-c4cnoc4)c3)cc(-c3cccnc3)n2)CC[C@@H]1C , give the reported pEC50.
> 6.70

---

# Test system: A375 cells
# Assay method text: Assay 1: A375 cells treated with S1152, S1008 and compound, immunofluorescence (sc-365823) signal
# Format: cell-based
# Recorded conditions: 1 μM S1152 + 0.5 μM S1008, one day
Kindly state EC50 for each of the entries shown.

Which EC50 reading was recorded for the compound CC(=O)N1C[C@H](c2nc(Nc3ccnc(C)c3)cc(-c3cncc(N4CC(C(=O)N(C)C)C4)c3)n2)CC[C@@H]1C ?
1000 to 10000 nM

# lookup: EC50 of CC(=O)N1C[C@H](c2nc(Nc3cccc4c3CC(=O)N4)cc(-c3cccnc3)n2)CC[C@@H]1C
200 to 1000 nM

Reported EC50 for CC(=O)Nc1cc(Nc2cc(-c3cnccn3)nc([C@@H]3CC[C@H](C)N(C(C)=O)C3)n2)cc(C(F)F)c1 : what is it?
< 200 nM

Which EC50 value belongs to [2H]C([2H])([2H])[C@@H]1CC[C@H](c2nc(Nc3cncc(C)c3)cc(-c3cnccn3)n2)CN1C(C)=O ?
> 10000 nM

---

# Test system: A375 cells
# Assay method text: Assay 1: A375 cells treated with S1152, S1008 and compound, immunofluorescence (sc-365823) signal
# Type: cell-based
# Recorded conditions: 1 μM S1152 + 0.5 μM S1008, one day
Parameter measured: EC50

Tell me the measured EC50 of CC(=O)Nc1ccc(Nc2cc(-c3cccnc3)nc([C@@H]3CC[C@H](C)N(C(C)=O)C3)n2)cc1O , please.
1000 to 10000 nM

What measured EC50 goes with CC(=O)N1C[C@H](c2nc(Nc3ccc4nncnc4c3)cc(-c3cccnc3)n2)CC[C@@H]1C ?
200 to 1000 nM

// query EC50 value for entry CC(=O)N1C[C@H](c2nc(Nc3cc(C)nc(N4CCOCC4)c3)cc(-c3cnccn3)n2)CC[C@@H]1C
< 200 nM
